FYI, the data here is from paper PMC6222357.

test: Stability of the analytes in beagle plasma QC samples under different storage conditions; format: physicochemical, beagle dog; details: high QC in beagle plasma, 4 h at ambient temperature, n = 6
OUTCOME MEASURE: Stability (% RE) Short-Term
A number alone suffices; assume % RE.

Example compounds with recorded Stability (% RE) Short-Term:
{"columns": ["COMPOUND", "UNIT ABBREV", "Stability (% RE) Short-Term"],
 "data": [
  ["c1c2c(cc3c1OCO3)-c1cc3ccc4c(c3c[n+]1CC2)OCO4 [Coptisine, coptisine]", "% RE", 7.57],
  ["COc1ccc(CCNC(=O)/C=C/c2ccc(O)c(O)c2)cc1 [Z23]", "% RE", 10.85],
  ["COc1ccc2cc3[n+](cc2c1O)CCc1cc2c(cc1-3)OCO2 [Berberrubine, berberrubine]", "% RE", 10.78],
  ["COc1cc2c(cc1O)-c1cc3ccc(OC)c(OC)c3c[n+]1CC2 [Columbamine, columbamine]", "% RE", 9.67],
  ["COc1cc2c(cc1OC)[C@@H]1Cc3ccc(OC)c(OC)c3CN1CC2 [Terahydropalmatine, tetrahydropalmatine]", "% RE", 5.15]
]}

Query block: Bench note: what Stability (% RE) Short-Term did C[n+]1cc2c3c(ccc2c2ccc4cc5c(cc4c21)OCO5)OCO3 [Sanguinarine, sanguinarine] show?
Result block: 9.29

Query block: Bench note: what Stability (% RE) Short-Term did COc1ccc2cc3[n+](cc2c1OC)CCc1cc2c(cc1-3)OCO2 [Berberine, berberine] show?
Result block: 11.96

Query block: Bench note: what Stability (% RE) Short-Term did COc1cc2c(cc1O)CC[n+]1cc3c(OC)c(OC)ccc3cc1-2 [Jateorhizine, jateorhizine] show?
Result block: 6.64

Query block: Bench note: what Stability (% RE) Short-Term did CC(=O)O[C@H]1Cc2cc3c(cc2[C@H]2N(C)Cc4c(ccc5c4OCO5)[C@@]12C)OCO3 [Acetylcorynoline, acetylcorynoline] show?
Result block: −4.81

---

experiment: Pharmacokinetic study in beagle dogs after oral administration of C. bungeana extract (UHPLC-MS/MS of plasma); details: male, beagle, dog, plasma, po, 0.12 g/kg
Measured log10 of Cmax, listed per entry for reference.
Field: value | Transform: log10 | Quantity: Cmax | Unit: ng/mL

Example compounds with recorded log10 of Cmax:
{"columns": ["COMPOUND", "RECORDED NUMBER"],
 "data": [
  ["COc1cc2c(cc1O)CC[n+]1cc3c(OC)c(OC)ccc3cc1-2", 1.87],
  ["COc1cc2c(cc1OC)[C@@H]1Cc3ccc(OC)c(OC)c3CN1CC2 [Terahydropalmatine, tetrahydropalmatine]", 2.31]
]}

Query block: Bench note: what log10 of Cmax did `CN1CCc2cc3c(cc2C(=O)Cc2ccc4c(c2C1)OCO4)OCO3` show?
Result block: 2.64

Query block: Bench note: what log10 of Cmax did `CN1Cc2c(ccc3c2OCO3)[C@@]2(C)[C@@H](O)Cc3cc4c(cc3[C@@H]12)OCO4` show?
Result block: 2.35

Query block: Bench note: what log10 of Cmax did `COc1ccc2cc3[n+](cc2c1O)CCc1cc2c(cc1-3)OCO2` show?
Result block: 2.65

Query block: Bench note: what log10 of Cmax did `COc1ccc2cc3[n+](cc2c1OC)CCc1cc2c(cc1-3)OCO2` show?
Result block: 3.14

Query block: Bench note: what log10 of Cmax did `COc1cc2c(cc1O)-c1cc3ccc(OC)c(OC)c3c[n+]1CC2` show?
Result block: 3.33

---

assay: Stability of the analytes in beagle plasma QC samples under different storage conditions; assay type: physicochemical, beagle dog; details: high QC, 12 h after sample preparation at 4 °C, n = 6
criterion met means recorded Stability (% RE) Post-Preparative is 10 % RE or above; criterion not met means it is below 10 % RE.

Query block: Does COc1ccc(CCNC(=O)/C=C/c2ccc(O)c(O)c2)cc1 [Z23] have a reported Stability (% RE) Post-Preparative of at least 10 % RE?
Result block: criterion not met

Query block: Does COc1ccc2cc3[n+](cc2c1OC)CCc1cc2c(cc1-3)OCO2 [Berberine, berberine] have a reported Stability (% RE) Post-Preparative of at least 10 % RE?
Result block: criterion met

Query block: Does CN1C(=O)c2c(ccc3c2OCO3)C2(C)C(O)Cc3cc4c(cc3C12)OCO4 (stereo not drawn) [8-oxocorynoline] have a reported Stability (% RE) Post-Preparative of at least 10 % RE?
Result block: criterion met

Query block: Does COc1cc2c(cc1O)CC[n+]1cc3c(OC)c(OC)ccc3cc1-2 [Jateorhizine, jateorhizine] have a reported Stability (% RE) Post-Preparative of at least 10 % RE?
Result block: criterion not met

Query block: Does C[n+]1cc2c3c(ccc2c2ccc4cc5c(cc4c21)OCO5)OCO3 [Sanguinarine, sanguinarine] have a reported Stability (% RE) Post-Preparative of at least 10 % RE?
Result block: criterion met

Query block: Does CN1CCc2cc3c(cc2C(=O)Cc2ccc4c(c2C1)OCO4)OCO3 [Protopine, protopine] have a reported Stability (% RE) Post-Preparative of at least 10 % RE?
Result block: criterion met

Query block: Does COc1cc2c(cc1OC)[C@@H]1Cc3ccc(OC)c(OC)c3CN1CC2 [Terahydropalmatine, tetrahydropalmatine] have a reported Stability (% RE) Post-Preparative of at least 10 % RE?
Result block: criterion not met

---

assay: Stability of the analytes in beagle plasma QC samples under different storage conditions; type: physicochemical, beagle dog; conditions: low QC in beagle plasma, 4 h at ambient temperature, n = 6
Measured Stability (% RE) Short-Term, listed per entry for reference.
A number alone suffices; assume % RE.

{"columns": ["COMPOUND", "Stability (% RE) Short-Term"],
 "data": [
  ["C[n+]1cc2c3c(ccc2c2ccc4cc5c(cc4c21)OCO5)OCO3", 12.41],
  ["COc1cc2c(cc1O)CC[n+]1cc3c(OC)c(OC)ccc3cc1-2", 7.31],
  ["COc1cc2c(cc1OC)-c1cc3ccc(OC)c(OC)c3c[n+]1CC2", 9.42],
  ["CC(=O)O[C@H]1Cc2cc3c(cc2[C@H]2N(C)Cc4c(ccc5c4OCO5)[C@@]12C)OCO3", 6.47]
]}

Query block: Bench note: what Stability (% RE) Short-Term did CN1C(=O)c2c(ccc3c2OCO3)C2(C)C(O)Cc3cc4c(cc3C12)OCO4 (centres unmarked) show?
Result block: 1.62

---

Measured Cmax, listed per entry for reference.
assay: in vivo; details: male, beagle, dog, po, 0.12 g/kg
A number alone suffices; assume ng/mL.

{"columns": ["CPD SMILES", "OUTCOME MEASURE", "RECORDED NUMBER"],
 "data": [
  ["c1c2c(cc3c1OCO3)-c1cc3ccc4c(c3c[n+]1CC2)OCO4", "Cmax", 2260]
]}

// next item, Cmax requested
Query block: Bench note: what Cmax did `C[n+]1cc2c3c(ccc2c2ccc4cc5c(cc4c21)OCO5)OCO3` show?
Result block: 533

---

assay: Stability of the analytes in beagle plasma QC samples under different storage conditions; type: physicochemical, beagle dog; settings: low QC, 12 h after sample preparation at 4 °C, n = 6
Measured Stability (% RE) Post-Preparative, listed per entry for reference.
A number alone suffices; assume % RE.

{"columns": ["CPD SMILES", "RECORDED NUMBER"],
 "data": [
  ["CC(=O)O[C@H]1Cc2cc3c(cc2[C@H]2N(C)Cc4c(ccc5c4OCO5)[C@@]12C)OCO3", 12.65],
  ["COc1cc2c(cc1O)-c1cc3ccc(OC)c(OC)c3c[n+]1CC2", 8.80]
]}

Query block: Bench note: what Stability (% RE) Post-Preparative did `COc1ccc2cc3[n+](cc2c1O)CCc1cc2c(cc1-3)OCO2` show?
Result block: 5.99

Query block: Bench note: what Stability (% RE) Post-Preparative did `CN1Cc2c(ccc3c2OCO3)[C@@]2(C)[C@@H](O)Cc3cc4c(cc3[C@@H]12)OCO4` show?
Result block: 7.14

---

test: Room temperature stability of stock solution; type: physicochemical; settings: medium QC level, 25 °C for 24 h, n = 6
OUTCOME MEASURE: Stability (% RE) Room Temperature for Stock-Solution
A number alone suffices; assume % RE.

{"columns": ["COMPOUND", "UNIT ABBREV", "RECORDED NUMBER"],
 "data": [
  ["COc1cc2c(cc1O)-c1cc3ccc(OC)c(OC)c3c[n+]1CC2", "% RE", 1.62],
  ["COc1ccc2cc3[n+](cc2c1O)CCc1cc2c(cc1-3)OCO2", "% RE", 1.25]
]}

Query block: Bench note: what Stability (% RE) Room Temperature for Stock-Solution did `COc1ccc2cc3[n+](cc2c1OC)CCc1cc2c(cc1-3)OCO2` show?
Result block: 4.08

Query block: Bench note: what Stability (% RE) Room Temperature for Stock-Solution did `COc1ccc(CCNC(=O)/C=C/c2ccc(O)c(O)c2)cc1` show?
Result block: 1.64

Query block: Bench note: what Stability (% RE) Room Temperature for Stock-Solution did CN1C(=O)c2c(ccc3c2OCO3)C2(C)C(O)Cc3cc4c(cc3C12)OCO4 (stereo not drawn) show?
Result block: 3.77

Query block: Bench note: what Stability (% RE) Room Temperature for Stock-Solution did `C[n+]1cc2c3c(ccc2c2ccc4cc5c(cc4c21)OCO5)OCO3` show?
Result block: 3.20

Query block: Bench note: what Stability (% RE) Room Temperature for Stock-Solution did COc1cc2c(cc1OC)[C@@H]1Cc3ccc(OC)c(OC)c3CN1CC2 [Terahydropalmatine, tetrahydropalmatine] show?
Result block: 4.65

Query block: Bench note: what Stability (% RE) Room Temperature for Stock-Solution did `COc1cc2c(cc1O)CC[n+]1cc3c(OC)c(OC)ccc3cc1-2` show?
Result block: −3.58

Query block: Bench note: what Stability (% RE) Room Temperature for Stock-Solution did `CC(=O)O[C@H]1Cc2cc3c(cc2[C@H]2N(C)Cc4c(ccc5c4OCO5)[C@@]12C)OCO3` show?
Result block: 2.57
